method_description: Hansen Solubility Parameters (D, P, H) and distance Ra of solvents (b)
quantity: Ra (Allowable Range) (MPa^0.5)

{"compound": "CCCCCCCCCCC(CO)CCCCCCCC (stereo not drawn)", "quantity": "Ra (Allowable Range)", "value": 6.33}

a: CCCCCCCCCCCCCC(=O)OC(C)C [Isopropyl Myristate]
b: CCCCCCCC/C=C\CCCCCCCC(=O)O
Hey, which is lower on measured Ra (Allowable Range), a or b ? Which one? Tell me its label.
b

a: CCO
b: OCCOc1ccccc1
Could you point out whether the larger Ra (Allowable Range) belongs to a or to b ? Which one? Tell me its label.
a
(a: 7.81 MPa^0.5, b: 2.55 MPa^0.5)

###

method_description: Hansen Solubility Parameters (D, P, H) and distance Ra of solvents (b)
quantity: Ra (Preferred Range) (MPa^0.5)

Use these answered entries as a reference point.
{"molecule": "CCCCCCCCCCCCCC(=O)OC(C)C [Isopropyl Myristate]", "quantity": "Ra (Preferred Range)", "value": 9.41}
{"molecule": "CC(C)O", "quantity": "Ra (Preferred Range)", "value": 5.54}
{"molecule": "CCCCCCCCCCC(CO)CCCCCCCC (stereo not drawn)", "quantity": "Ra (Preferred Range)", "value": 5.17}

P: CCO
Q: OCCOc1ccccc1
R: CCCCCCCC/C=C\CCCCCCCC(=O)O
// smallest Ra (Preferred Range) at index 0, largest at the end Please list each label once, in the requested order.
Q, R, P
